pIC50: −log10 of the molar value.
Assay system HCV Protease (HCV NS3-4A) (Hepatitis C virus genotype 1a, UniProt P27958); read-out recorded as pIC50.

The cases that follow already have their pIC50 on record.
1. CC[C@H]1C[C@@]1(NC(=O)C1C[C@@H]2CN1C(=O)[C@H](C(C)(C)C)NC(=O)OCCCCCCOc1cccc3c1CN(C3)C(=O)O2)C(=O)NS(=O)(=O)C1CC1 (some centres unmarked) [Compound 15w]    8.30 to 10.00
2. CCC1CC1(NC(=O)C1CC2CN1C(=O)C(C(C)(C)C)NC(=O)OCC(C)(C)CCCCCNC(=O)c1cccc3c1CN(C3)C(=O)O2)C(=O)NS(=O)(=O)C1CC1 (centres unmarked) [Compound 15bd]    6.52 to 7.29
3. CCC1CC1(NC(=O)C1CC2CN1C(=O)C(C(C)(C)C)NC(=O)OCC(C)(C)CCCCCOc1cc(OC)cc3c1CN(C3)C(=O)O2)C(=O)NS(=O)(=O)C1CC1 (centres unmarked) [Compound 15v]    8.30 to 10.00
4. C=C[C@H]1C[C@@]1(NC(=O)C1C[C@@H]2CN1C(=O)[C@H](C(C)(C)C)NC(=O)OCCCC/C=C/COc1ccc3c(c1)CN(C3)C(=O)O2)C(=O)NS(=O)(=O)C1CC1 (some centres unmarked) [Compound 15bh]    8.30 to 10.00

pIC50 of C=CC1CC1(NC(=O)C1CC2CN1C(=O)C(C(C)(C)C)NC(=O)OCCCCCCOc1cccc3c1CN(C3)C(=O)O2)C(=O)NS(=O)(=O)C1CC1 (centres unmarked) [Compound 15aa] , assay on HCV Protease (HCV NS3-4A) (Hepatitis C virus genotype 1a, UniProt P27958), is 8.30 to 10.00

====

Assay system HCV Protease (HCV NS3-4A) (Hepatitis C virus genotype 1a); read-out recorded as IC50.

The cases that follow already have their IC50 on record.
1) C=C[C@H]1C[C@@]1(NC(=O)C1C[C@@H]2CN1C(=O)[C@H](C(C)(C)C)NC(=O)OCC/C=C/COc1ccc3c(c1)CN(C3)C(=O)O2)C(=O)NS(=O)(=O)C1CC1 (some centres unmarked) [Compound 15bm]    51 to 300 nM
2) C=C[C@H]1C[C@@]1(NC(=O)C1C[C@@H]2CN1C(=O)[C@H](C(C)(C)C)NC(=O)OCCCCCCCOc1ccc3c(c1)CN(C3)C(=O)O2)C(=O)NS(=O)(=O)C1CC1 (some centres unmarked) [Compound 15bf]    0.1 to 5 nM
3) C=C[C@H]1C[C@@]1(NC(=O)C1C[C@@H]2CN1C(=O)[C@H](C(C)(C)C)NC(=O)OCC(C)(C)CC/C=C\c1c3c(cc4c1OCO4)CN(C3)C(=O)O2)C(=O)NS(=O)(=O)C1CC1 (some centres unmarked) [Compound 15bv]    0.1 to 5 nM

Now for another entry.
IC50 of CC[C@H]1C[C@@]1(NC(=O)C1C[C@@H]2CN1C(=O)[C@H](C(C)(C)C)NC(=O)OCC1(C/C=C/COc3cccc4c3CN(C4)C(=O)O2)CC1)C(=O)NS(=O)(=O)C1CC1 (some centres unmarked) [Compound 15f] , assay on HCV Protease (HCV NS3-4A) (Hepatitis C virus genotype 1a), is 0.1 to 5 nM

====

Assay system HCV Protease (HCV NS3-4A) (Hepatitis C virus genotype 1a, UniProt P27958); read-out recorded as IC50.

The cases that follow already have their IC50 on record.
1) CC[C@H]1C[C@@]1(NC(=O)C1C[C@@H]2CN1C(=O)[C@H](C(C)(C)C)NC(=O)OCCCCCOc1cccc3c1CN(C3)C(=O)O2)C(=O)NS(=O)(=O)C1CC1 (some centres unmarked) [Compound 15ag]    0.1 to 5 nM
2) CC[C@H]1C[C@@]1(NC(=O)C1C[C@@H]2CN1C(=O)[C@H](C(C)(C)C)NC(=O)OCC(C)(C)C/C=C/COc1c(OC)ccc3c1CN(C3)C(=O)O2)C(=O)NS(=O)(=O)C1CC1 (some centres unmarked) [Compound 15h]    5.1 to 50 nM
3) CC[C@H]1C[C@@]1(NC(=O)C1C[C@@H]2CN1C(=O)[C@H](C(C)(C)C)NC(=O)OCCCC/C=C\c1c3c(cc4c1OCO4)CN(C3)C(=O)O2)C(=O)NS(=O)(=O)C1CC1 (some centres unmarked) [Compound 15bw]    0.1 to 5 nM

IC50 of CCC1CC1(NC(=O)C1CC2CN1C(=O)C(C(C)(C)C)NC(=O)OCCC=CCOc1c(OC)ccc3c1CN(C3)C(=O)O2)C(=O)NS(=O)(=O)C1CC1 (centres unmarked) [Compound 15m] , assay on HCV Protease (HCV NS3-4A) (Hepatitis C virus genotype 1a, UniProt P27958), is 5.1 to 50 nM

IC50 of C=C[C@H]1C[C@@]1(NC(=O)C1C[C@@H]2CN1C(=O)[C@H](C(C)(C)C)NC(=O)OCCCCCCCOc1cccc3c1CN(C3)C(=O)O2)C(=O)NS(=O)(=O)C1CC1 (some centres unmarked) [Compound 15ab] , assay on HCV Protease (HCV NS3-4A) (Hepatitis C virus genotype 1a, UniProt P27958), is 0.1 to 5 nM

====

Assay system HCV Protease (HCV NS3-4A) (Hepatitis C virus genotype 1a, UniProt P27958); read-out recorded as IC50.

The cases that follow already have their IC50 on record.
1) C=C[C@H]1C[C@@]1(NC(=O)C1C[C@@H]2CN1C(=O)[C@H](C(C)(C)C)NC(=O)OCC(C)(C)CCCCCOc1ccc3c(c1)CN(C3)C(=O)O2)C(=O)NS(=O)(=O)C1CC1 (stereo partly drawn) [Compound 15bn]    0.1 to 5 nM
2) CC[C@H]1C[C@@]1(NC(=O)C1C[C@@H]2CN1C(=O)[C@H](C(C)(C)C)NC(=O)OCC(C)(C)C/C=C/CSc1cccc3c1CN(C3)C(=O)O2)C(=O)NS(=O)(=O)C1CC1 (stereo partly drawn) [Compound 15cb]    0.1 to 5 nM

IC50 of CC[C@H]1C[C@@]1(NC(=O)C1C[C@@H]2CN1C(=O)[C@H](C(C)(C)C)NC(=O)OCC(C)(C)OCCCCOc1cccc3c1CN(C3)C(=O)O2)C(=O)NS(=O)(=O)C1CC1 (stereo partly drawn) [Compound 15am] , assay on HCV Protease (HCV NS3-4A) (Hepatitis C virus genotype 1a, UniProt P27958), is 0.1 to 5 nM
